Test system: HOP-92 NSCLC
ASSAY_SUMMARY: NCI tumour cell line growth inhibition, 48 h
TGI by entry:
ASSAY_READOUT: TGI

{"columns": ["COMPOUND", "EXPERIMENTAL_RESULT"],
 "data": [
  ["CC(=O)Nc1ccc(SC#N)c2c(NC(C)=O)cccc12", "> 94.8 µM"],
  ["CC1(/C=C/CCSc2ccccc2)CC(=O)C2CC1C2(C)C (centres undefined)", "> 75.4 µM"],
  ["O=C(c1ccccc1)c1ccc2nc(-c3c(Cl)c(Cl)c(Cl)c(Cl)c3C(=O)N/N=C/c3ccc(Cl)cc3)[nH]c2c1", "> 100 µM"],
  ["Oc1ccc(-c2cc(-c3cc(-c4ccc(O)cc4)no3)on2)cc1", "> 100 µM"],
  ["O=C1CCCN1C(=O)CS(=O)(=O)c1ccccc1", "> 100 µM"],
  ["O=C1OC(=O)C(=C\\c2ccc3c(c2)OCO3)/C1=C/c1ccc2c(c1)OCO2", "> 100 µM"],
  ["CC(C)(C)c1cc2c(OC/C=C/c3ccccc3)c(c1)Cc1cc(C(C#N)(OC/C=C/c3ccccc3)OC/C=C/c3ccccc3)cc(c1OC/C=C\\c1ccccc1)Cc1cc(C(C)(C)C)cc(c1OC/C=C/c1ccccc1)Cc1cc(C(C#N)(OC/C=C\\c3ccccc3)OC/C=C/c3ccccc3)cc(c1OC/C=C\\c1ccccc1)C2 (centres undefined)", "> 100 µM"],
  ["CCN1C(=O)c2cc(OC)c(OC)cc2C(=O)C12OC(=O)c1cc3c(cc12)OCO3 (centres undefined)", "> 100 µM"],
  ["N#CC(C#N)=C1NC(=O)CC(=O)N1", "> 100 µM"]
]}
